Where these numbers come from: patent US10561657B2

# assay: Pharmacokinetic assay in adult beagles (IV 5 mg/kg, PO 10 mg/kg)
# Format: in vivo
# experimental_context: both sexes, beagle, dog, plasma, PO 10 mg/kg, average, read-out: AUCINF—obs
# Description: Pharmacokinetic Assay in Adult Beagles
measured_property: AUC(0-inf) (ng·h/mL)
Number in ng·h/mL, nothing else.

Given "N#CC[C@H](C1CCCC1)n1cc(-c2ncnc3[nH]ccc23)c(N)n1" , state its recorded AUC(0-inf).
22500

====

# target_entity: JAK2 kinase (V617F mutant type, JAK2^V617F) (Homo sapiens (Human), UniProt O60674, V617F)
# Sequence (O60674 whole entry V617F): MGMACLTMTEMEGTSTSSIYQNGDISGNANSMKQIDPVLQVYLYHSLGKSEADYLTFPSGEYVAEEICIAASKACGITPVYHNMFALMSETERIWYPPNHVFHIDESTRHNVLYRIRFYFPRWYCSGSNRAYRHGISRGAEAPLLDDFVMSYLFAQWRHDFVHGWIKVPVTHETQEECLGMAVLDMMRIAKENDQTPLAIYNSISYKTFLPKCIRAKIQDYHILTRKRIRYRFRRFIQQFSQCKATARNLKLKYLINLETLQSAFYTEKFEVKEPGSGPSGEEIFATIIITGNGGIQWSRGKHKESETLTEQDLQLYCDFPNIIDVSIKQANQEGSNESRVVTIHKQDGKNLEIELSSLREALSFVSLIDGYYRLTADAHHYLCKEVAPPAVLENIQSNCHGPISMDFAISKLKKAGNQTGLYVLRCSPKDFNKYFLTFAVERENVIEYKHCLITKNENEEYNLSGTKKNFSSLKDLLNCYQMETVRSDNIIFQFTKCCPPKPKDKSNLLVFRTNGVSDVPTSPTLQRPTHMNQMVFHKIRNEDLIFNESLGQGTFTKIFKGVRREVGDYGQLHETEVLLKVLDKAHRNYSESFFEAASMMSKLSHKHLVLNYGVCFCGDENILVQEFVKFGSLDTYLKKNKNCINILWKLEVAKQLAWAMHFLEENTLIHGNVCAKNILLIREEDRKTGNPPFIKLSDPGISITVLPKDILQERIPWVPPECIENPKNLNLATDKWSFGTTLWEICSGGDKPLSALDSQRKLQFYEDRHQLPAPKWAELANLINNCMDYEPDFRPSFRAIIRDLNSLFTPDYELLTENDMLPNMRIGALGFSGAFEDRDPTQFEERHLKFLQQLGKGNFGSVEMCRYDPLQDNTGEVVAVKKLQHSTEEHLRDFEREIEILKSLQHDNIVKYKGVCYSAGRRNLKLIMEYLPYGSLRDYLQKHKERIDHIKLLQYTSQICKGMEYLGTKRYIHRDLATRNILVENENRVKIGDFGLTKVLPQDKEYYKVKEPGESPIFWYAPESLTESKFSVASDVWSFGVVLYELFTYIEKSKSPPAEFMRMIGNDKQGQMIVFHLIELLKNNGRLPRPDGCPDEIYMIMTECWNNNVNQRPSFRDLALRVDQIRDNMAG
# assay: HTRF assay for enzymatic activity (IC50), JAK2 V617F mutant type
# experimental_context: ATP at Km, 120 min, 23 °C
measured_property: IC50

So what does the record say about IC50 for CCNc1nn(C(CC#N)C2CCCC2)cc1-c1ncnc2[nH]ccc12 (centres unmarked) ?
< 20 nM

Query molecule follows.
Can you share its IC50? I mean this molecule: N#CCC(C1CCCC1)n1cc(-c2ncnc3[nH]ccc23)c(N)n1 (centres unmarked)
< 20 nM

====

# assay: Pharmacokinetic assay in adult beagles (IV 5 mg/kg, PO 10 mg/kg)
# Format: in vivo
# experimental_context: beagle, dog, plasma, IV 5 mg/kg, female, read-out: AUCINF—obs
measured_property: AUC(0-inf) (µg·h/mL)
All answers are understood in µg·h/mL, so give the number only.

Entry under review: "N#CC[C@H](C1CCCC1)n1cc(-c2ncnc3[nH]ccc23)c(N)n1" . Reported AUC(0-inf)?
11.5

====

# assay: Pharmacokinetic assay in adult beagles (IV 5 mg/kg, PO 10 mg/kg)
# Type: in vivo
# experimental_context: beagle, dog, plasma, PO 10 mg/kg, female
measured_property: half-life (h)
A number alone suffices; assume h.

Item under review: "N#CC[C@H](C1CCCC1)n1cc(-c2ncnc3[nH]ccc23)c(N)n1" . Reported half-life?
3.03

====

# assay: Pharmacokinetic assay in adult female SD rats (30 mg/kg oral)
# Format: in vivo
# experimental_context: female, Sprague-Dawley, rat, plasma, po, 30 mg/kg
Where a name gives a salt, the structure may show the parent alone.
measured_property: half-life (h)
Quick reminder: number only, in h, skip the unit.

# get_value(readout='half-life', item= N#CC[C@H](C1CCCC1)n1cc(-c2ncnc3[nH]ccc23)c(N)n1 [hydrochloride] )
1.95

====

# assay: Pharmacokinetic assay in adult beagles (IV 5 mg/kg, PO 10 mg/kg)
# Type: in vivo
# experimental_context: beagle, dog, plasma, PO 10 mg/kg, female, read-out: AUCINF—obs
measured_property: AUC(0-inf)

Reported AUC(0-inf) for "N#CC[C@H](C1CCCC1)n1cc(-c2ncnc3[nH]ccc23)c(N)n1" : what is it?
27400 ng·h/mL
